meta.source: patent US20080139484A1

# measurement target: human SGLT1 (Homo sapiens)
# Sequence (P13866 whole entry): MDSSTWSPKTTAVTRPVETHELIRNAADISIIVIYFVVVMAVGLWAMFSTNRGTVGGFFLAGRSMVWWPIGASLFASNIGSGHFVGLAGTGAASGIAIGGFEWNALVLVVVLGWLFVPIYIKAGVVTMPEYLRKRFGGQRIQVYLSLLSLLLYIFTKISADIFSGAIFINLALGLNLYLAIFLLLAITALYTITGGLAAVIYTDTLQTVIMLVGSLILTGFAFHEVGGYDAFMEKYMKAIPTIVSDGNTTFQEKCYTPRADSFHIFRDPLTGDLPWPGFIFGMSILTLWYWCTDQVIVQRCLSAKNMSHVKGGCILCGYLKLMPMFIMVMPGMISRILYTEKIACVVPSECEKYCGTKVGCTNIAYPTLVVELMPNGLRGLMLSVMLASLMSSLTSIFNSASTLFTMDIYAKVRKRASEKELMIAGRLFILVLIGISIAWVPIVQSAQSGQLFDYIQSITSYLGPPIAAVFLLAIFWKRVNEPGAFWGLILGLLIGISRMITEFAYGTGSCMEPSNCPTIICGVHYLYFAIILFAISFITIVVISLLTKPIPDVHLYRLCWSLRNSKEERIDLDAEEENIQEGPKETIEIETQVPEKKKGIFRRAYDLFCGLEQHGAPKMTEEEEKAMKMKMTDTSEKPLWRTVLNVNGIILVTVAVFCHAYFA
# measurement protocol: Inhibition of methyl-α-D-glucopyranoside (α-MG) uptake in COS-7 cells expressing human SGLT1
# measurement setup: COS-7 cells expressing human SGLT1, 1 mM α-MG, 1 hour incubation at 37° C.
Overview of reported IC50 across a group of compounds:
readout name: IC50 (nM)

INSERT INTO assay_data (smiles_structure, measurement) VALUES
  ('COc1ccc(Cc2cn([C@@H]3O[C@H](CO)[C@@H](O)[C@H](O)[C@H]3O)c3cc(C)ccc23)cc1', 3200),
  ('COc1ccc(Cc2cn([C@@H]3O[C@H](CO)[C@@H](O)[C@H](O)[C@H]3O)c3cccc(C)c23)cc1', 10),
  ('Cc1cccc2c1c(Cc1ccc(CCCC(=O)NC(C)(C)C(=O)N3CCNCC3)cc1)cn2[C@@H]1O[C@H](CO)[C@@H](O)[C@H](O)[C@H]1O', 41),
  ('Cc1cccc2c1c(Cc1ccc(OCCCNCCC(N)=O)cc1)cn2[C@@H]1O[C@H](CO)[C@@H](O)[C@H](O)[C@H]1O', 122);
